- TEST SYSTEM: ERR1 (also known as ERR-α or ERR-1) (Homo sapiens, UniProt P11474)
- Sequence (P11474 193-421 limits assumed, species assumed): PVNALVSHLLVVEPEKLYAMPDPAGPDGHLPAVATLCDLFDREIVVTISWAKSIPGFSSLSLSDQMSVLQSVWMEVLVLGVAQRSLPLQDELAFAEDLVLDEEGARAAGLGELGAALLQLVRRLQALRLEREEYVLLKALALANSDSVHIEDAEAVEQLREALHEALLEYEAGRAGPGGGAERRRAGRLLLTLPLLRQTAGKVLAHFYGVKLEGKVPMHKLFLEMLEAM
- MEASUREMENT DESCRIPTION: TR-FRET assay (disruption of co-activator peptide binding to ERR1 LBD)
- APPLIED CONDITIONS: 6 nM 6His-ERR1LBD, 6 nM GST-SRC-2 peptide; average of 3 independent experiments
METRIC NAME: log10(EC50) (log10 of the value in µM)

- COMPOUND: "CS(=O)(=O)CCN1CCC[C@H]1CN1C(=O)S/C(=C\\c2ccc3c(cnn3Cc3ccc(Cl)cc3C(F)(F)F)c2)C1=O"
  TEST SYSTEM: "ERR1 (also known as ERR-α or ERR-1) (Homo sapiens, UniProt P11474)"
  METRIC NAME: "log10(EC50)"
  REPORTED: -1.06
- COMPOUND: "COc1nn(Cc2ccc(Cl)cc2C(F)(F)F)c2ccc(/C=C3\\SC(=O)N(CCN4CCCC4)C3=O)cc12"
  TEST SYSTEM: "ERR1 (also known as ERR-α or ERR-1) (Homo sapiens, UniProt P11474)"
  METRIC NAME: "log10(EC50)"
  REPORTED: -1.57
- COMPOUND: "CC(=O)NS(=O)(=O)CN1C(=O)S/C(=C\\c2ccc3c(cnn3Cc3ccc(C(F)(F)F)cc3C(F)(F)F)c2)C1=O"
  TEST SYSTEM: "ERR1 (also known as ERR-α or ERR-1) (Homo sapiens, UniProt P11474)"
  METRIC NAME: "log10(EC50)"
  REPORTED: -1.06
- COMPOUND: "NC1(CN2C(=O)S/C(=C\\c3ccc4c(cnn4Cc4ccc(Cl)cc4C(F)(F)F)c3)C2=O)CCC1"
  TEST SYSTEM: "ERR1 (also known as ERR-α or ERR-1) (Homo sapiens, UniProt P11474)"
  METRIC NAME: "log10(EC50)"
  REPORTED: -0.08
- COMPOUND: "O=C1S/C(=C\\c2ccc3c(cnn3Cc3ccc(Cl)cc3C(F)(F)F)c2)C(=O)N1C[C@H]1COCCN1"
  TEST SYSTEM: "ERR1 (also known as ERR-α or ERR-1) (Homo sapiens, UniProt P11474)"
  METRIC NAME: "log10(EC50)"
  REPORTED: -1.82
- COMPOUND: "CN1CC[C@@H](N2C(=O)S/C(=C\\c3ccc4c(cnn4Cc4ccc(Cl)cc4C(F)(F)F)c3)C2=O)[C@H](F)C1 [Compound 383]"
  TEST SYSTEM: "ERR1 (also known as ERR-α or ERR-1) (Homo sapiens, UniProt P11474)"
  METRIC NAME: "log10(EC50)"
  REPORTED: -1.64
- COMPOUND: "COC(=O)C1(N2C(=O)S/C(=C\\c3ccc4c(cnn4Cc4ccc(Cl)cc4C(F)(F)F)c3)C2=O)CCN(C)CC1"
  TEST SYSTEM: "ERR1 (also known as ERR-α or ERR-1) (Homo sapiens, UniProt P11474)"
  METRIC NAME: "log10(EC50)"
  REPORTED: -1.55
